Sourced from patent US20250255960A1

Target: T1, Fc-labeled CD70 antigen
T1 construct: soluble antigen used at 1:100 to stain CAR-T cells; also called detected with the secondary antibody PE-Fc (axis label PE-Fc)
T1 sequence (P32970 whole entry, species assumed, looked up): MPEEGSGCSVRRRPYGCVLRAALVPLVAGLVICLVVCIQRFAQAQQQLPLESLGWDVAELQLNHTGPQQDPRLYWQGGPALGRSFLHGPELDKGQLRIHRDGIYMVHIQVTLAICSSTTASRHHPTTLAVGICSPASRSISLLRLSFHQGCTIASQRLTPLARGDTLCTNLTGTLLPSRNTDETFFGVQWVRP
Assay: flow cytometry: CAR-transduced T cells stained with Fc-labeled CD70 antigen (1:100) and secondary antibody PE-Fc; NT control 0.79
// CD70 CAR+ (positive rate of the cells) lookup, one value per entry
Give just the number in %; leave the unit off.

Binder	CD70 CAR+ (positive rate of the cells) / %
8B4-BBz (other, also called CD70-8B4-BBz) chimeric antigen receptor chain: EVQLVESGGGFVQPGGSLRLSCAASGFTLDGYAVAWFRQAPGKEREGVSCISSSDGSTYYIDSVQGRFTITRNNAKNTVYLQMNSLKPEDTAVYYCTTDVLTSCRSDRWLEVWGQGTLVTVSSTTTPAPRPPTPAPTIASQPLSLRPEACRPAAGGAVHTRGLDFACDIYIWAPLAGTCGVLLLSLVITLYCRFSVVKRGRKKLLYIFKQPFMRPVQTTQEEDGCSCRFPEEEEGGCELRVKFSRSADAPAYQQGQNQLYNELNLGRREEYDVLDKRRGRDPEMGGKPRRKNPQEGLYNELQKDKMAEAYSEIGMKGERRRGKGHDGLYQGLSTATKDTYDALHMQALPPR	78.3

Query block: Fill in: CD70 CAR+ (positive rate of the cells) of 9D8-BBz (other, also called CD70-9D8-BBz) chimeric antigen receptor chain: QLQLVESGGGLVQPGGSLRLSCAVSGRTSSTYAMAWFRQAPGKEREIVAVITWSGGRTAYADSVKGRFTIAKDSAKNTVYLQMNSLKPEDTAVYYCAADSEVSSSSEGQYGYESWGQGTQVTVSSTTTPAPRPPTPAPTIASQPLSLRPEACRPAAGGAVHTRGLDFACDIYIWAPLAGTCGVLLLSLVITLYCRFSVVKRGRKKLLYIFKQPFMRPVQTTQEEDGCSCRFPEEEEGGCELRVKFSRSADAPAYQQGQNQLYNELNLGRREEYDVLDKRRGRDPEMGGKPRRKNPQEGLYNELQKDKMAEAYSEIGMKGERRRGKGHDGLYQGLSTATKDTYDALHMQALPPR is ___
Result block: 83
